The reported numbers originate from ChEMBL document CHEMBL1142710.

# Measurement Target: Mu-type opioid receptor (Rattus norvegicus, UniProt P33535)
# Sequence (P33535 whole entry): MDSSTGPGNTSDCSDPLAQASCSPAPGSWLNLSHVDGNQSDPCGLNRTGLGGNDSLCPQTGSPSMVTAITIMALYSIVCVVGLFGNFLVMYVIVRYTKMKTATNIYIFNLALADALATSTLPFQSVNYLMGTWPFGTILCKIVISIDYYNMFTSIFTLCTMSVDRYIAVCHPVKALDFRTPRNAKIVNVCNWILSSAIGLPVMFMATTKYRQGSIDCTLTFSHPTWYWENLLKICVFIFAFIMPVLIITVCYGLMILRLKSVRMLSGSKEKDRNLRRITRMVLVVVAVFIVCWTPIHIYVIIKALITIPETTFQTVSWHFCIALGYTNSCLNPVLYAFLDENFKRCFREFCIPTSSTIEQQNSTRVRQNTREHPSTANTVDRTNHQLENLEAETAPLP
# Experiment Notes: Binding affinity against Opioid receptor mu 1 from rat brain membranes using [3H]DAMGO
Parameter Measured: Ki (nM)
Give the quantity in nM, number only.

Which Ki is listed for CN1CCC23c4c5ccc(O)c4O[C@H]2c2ncc(-c4ccccc4)cc2C[C@H]3C1C5 (stereo partly drawn) ?
24

What do you have for C=C(C)CN1CCC23c4c5ccc(O)c4O[C@H]2c2oc4ccccc4c2C[C@@]3(O)C1C5 (stereo partly drawn) ?
1290

Request: Cc1nc(-c2ccccc2)c2c(n1)[C@@H]1Oc3c(O)ccc4c3C13CCN(CC1CC1)C(C4)[C@]3(O)C2 (stereo partly drawn)
251

Next record, please: C=C(C)CN1CCC23c4c5ccc(O)c4O[C@H]2C(=O)/C(=C\c2ccccc2)C[C@@]3(O)C1C5 (stereo partly drawn)
4470

Please give the result for CN1CCC23c4c5ccc(O)c4O[C@H]2c2ncc(-c4ccc(Br)cc4)cc2C[C@@]3(O)C1C5 (stereo partly drawn) too.
195

And the next one, C=C(C)CN1CC[C@]23c4c5ccc(O)c4O[C@@H]2c2[nH]c4ccccc4c2C[C@@]3(O)[C@H]1C5 ?
7940

Here is the next compound: COc1cccc2c1C13CCN(CC4CC4)C(C2)[C@]1(OCCCc1ccccc1)CCC(=O)C3 (stereo partly drawn)
0.339

Let us now turn to CO[C@@]12CCC(=O)CC13CCN(CC1CC1)C2Cc1cccc(OC/C=C/c2ccccc2)c13 (stereo partly drawn)
28.2

====

Consider the following compounds; for each one, report its Ki.
# Measurement Target: Kappa-type opioid receptor (Cavia porcellus, UniProt P41144)
# Sequence (P41144 whole entry): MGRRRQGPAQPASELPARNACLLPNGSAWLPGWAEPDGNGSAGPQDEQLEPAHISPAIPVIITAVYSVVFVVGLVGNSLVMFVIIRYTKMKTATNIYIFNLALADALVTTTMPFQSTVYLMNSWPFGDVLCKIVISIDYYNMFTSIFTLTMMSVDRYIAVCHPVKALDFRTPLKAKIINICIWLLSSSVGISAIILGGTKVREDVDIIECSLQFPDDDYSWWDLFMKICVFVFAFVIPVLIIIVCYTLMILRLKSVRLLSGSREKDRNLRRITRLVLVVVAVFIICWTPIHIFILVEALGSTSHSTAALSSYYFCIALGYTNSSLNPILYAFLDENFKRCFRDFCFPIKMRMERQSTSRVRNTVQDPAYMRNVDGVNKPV
# Experiment Notes: Binding affinity against Opioid receptor kappa 1 from guinea pig brain membranes using [3H]U-69593
Write the value in nM as a bare number.

Given the entry O=C(Oc1ccc2[nH]c3c(c2c1)C[C@@]1(O)[C@H]2Cc4ccc(O)c5c4[C@@]1(CCN2CC1CC1)[C@@H]3O5)c1ccccc1 , what Ki was observed with Kappa-type opioid receptor (Cavia porcellus, UniProt P41144)?
81.3

Please do the same for O=C(Oc1cccc2c3c([nH]c12)[C@H]1Oc2c(O)ccc4c2[C@@]12CCN(CC1CC1)[C@H](C4)[C@]2(O)C3)c1ccccc1 as well.
257

Another compound: CCCCOc1cccc2c1C13CCN(CC4CC4)C(C2)[C@]1(OCCCc1ccccc1)CCC(=O)C3 (some centres undefined)
151

// repeat for Oc1ccc2c3c1O[C@@H]1c4[nH]c5ccc(/C=C/c6ccccn6)cc5c4C[C@@]4(O)[C@@H](C2)N(CC2CC2)CC[C@]314 and report
20

====

# Measurement Target: Kappa-type opioid receptor (Cavia porcellus, UniProt P41144)
# Experiment Notes: Binding affinity against Opioid receptor kappa 1 from guinea pig brain membranes using [3H]U-69593
Field: Ki. Provide a value for each of the compounds that follow.
Give the value, in units of µM, as a plain number.

Value lookup for Ki; key = CN1CCC23c4c5ccc(O)c4O[C@H]2c2ncc(-c4ccc(Cl)cc4)cc2C[C@H]3C1C5 (stereo partly drawn)
0.0776

Entry to check: C=C(C)CN1CCC23c4c5ccc(O)c4O[C@H]2C(=O)/C(=C\c2ccccc2)C[C@@]3(O)C1C5 (stereo partly drawn)
4.47

Do the same for CN1CCC23c4c5ccc(O)c4O[C@H]2c2ncc(-c4ccc(Br)cc4)cc2C[C@@]3(O)C1C5 (stereo partly drawn) please
0.437
